Test system: SK-MEL-28 melanoma
Measurement Description: NCI-60 one-dose screen, 48 h (100 = growth as untreated, 0 = no growth, -100 = all killed)
Study Conditions: 10 µM unless noted
This is part of a sample that, as a whole, favours compounds with a hit. Of some 83,000 tested, about 20% had one in any assay.

Molecule	Measurement Units	growth
Cn1c(=O)c2c(nc(Cl)n2CCl)n(C)c1=O	%	55
N=C1C(c2nc(-c3ccc(Br)cc3)cs2)=C(O)CN1CC1CCCO1 (centres undefined)	%	107
Clc1cccc(Cl)c1/C=C/c1cc(/C=C/c2c(Cl)cccc2Cl)[nH]n1	%	46.2
COc1ccc(/C=C/c2c(C(=O)/C=C/c3ccc(F)cc3)c(C)nc3ccccc23)cc1	%	55.3
CCOC(=O)c1c2ncccc2n2c(=O)n(-c3ccccc3C)nnc12	%	157
COc1ccc(-c2nc(SC(C)C)nc(NNC(N)=S)c2C#N)cc1	%	58.7
O=c1[nH]ccc2nc(N3CCC(O)CC3)nc(Nc3ccc(N4CCOCC4)cc3)c12	%	82.6
COC(=O)[C@]12CC[C@@H](C)[C@H](C)[C@@H]1C1=CC[C@@H]3[C@@]4(C)C(C=O)=C[C@@](C)(COS(C)(=O)=O)C4[C@H](O)C[C@@]3(C)[C@]1(C)CC2 (some centres undefined)	%	-57.7
NC(=O)c1ccc[n+]([C@@H]2O[C@H](COP(=O)([O-])OP(=O)(O)OC[C@H]3O[C@@H](n4cnc5c(N)ncnc54)[C@H](O)[C@@H]3O)[C@@H](O)[C@H]2O)c1	%	103
O=S(=O)(Nc1cccc(Cl)c1)c1ccc(-c2cnc(C3CC3)o2)cc1	%	68.4
COc1cc(N=Nc2cc(Cc3ccc(N(C)C)cc3)c(N)cc2N(C)C)c2ncccc2c1	%	15.7
C[n+]1cccc(CC(=O)NO)c1	%	113
COc1ccc2cc(-c3cc(OC)c(OC)c(OC)c3)c(=O)oc2c1	%	78.5
Cn1c(-c2c(N)n(Cc3cccnc3)c3nc(C#N)c(C#N)nc23)nc2ccccc21	%	113
CN(c1ccccc1)c1ccc2c(c1)OCCC21CC1Nc1cnccc1C(=O)O (centres undefined)	%	69.1
c1ccc2c(c1)nc(CN1CCOCC1)n1cc(N3CCCC3)nc21	%	118
Cc1cc(NCCCCNc2ccnc3cc(Cl)ccc23)nc(Nc2ccc(C(=O)N3CCCC3)cc2)n1	%	-72.8
COc1ccc(-c2nc3c(c(=O)n2C(C)=O)C(c2ccc(Cl)cc2)c2sc4c(Cl)cccc4c2O3)cc1 (centres undefined)	%	23.4
Cc1ccc(NS(=O)(=O)c2ccc3c(c2)C2OCCC2C(c2ccc(C(=O)C(C)C)cc2)N3)cc1C (centres undefined)	%	51.3
